# Test system: binding of phagotope-specific antibodies to HIV-1
# PROTOCOL_SUMMARY: Displacement of binding of phagotope-specific antibodies to HIV-1 by phagotopes or peptides (ELISA)
# CONDITION_SET: increasing concentrations of peptide
QUANTITY: displacement of antibody binding to HIV-1 by peptides in solution

Returns the measured displacement of antibody binding to HIV-1 by peptides in solution for the input sequence. Input: SGRLYCHESW [compound 335]
effectively displaced

Returns the measured displacement of antibody binding to HIV-1 by peptides in solution for the input sequence. Input: KSSGKLISL [compound 195]
effectively displaced

Returns the measured displacement of antibody binding to HIV-1 by peptides in solution for the input sequence. Input: GTKLVCFAA [compound 197]
effectively displaced

Hello, the source for this data is patent US6911527B1, in case you need it.
